Reported FOB Fold Over Background by item:
Target: T1, mouse TREM1 on CHO cells (mouse, UniProt Q9JKE2 21-230)
T1 construct: also called CHO-mT1
T1 sequence: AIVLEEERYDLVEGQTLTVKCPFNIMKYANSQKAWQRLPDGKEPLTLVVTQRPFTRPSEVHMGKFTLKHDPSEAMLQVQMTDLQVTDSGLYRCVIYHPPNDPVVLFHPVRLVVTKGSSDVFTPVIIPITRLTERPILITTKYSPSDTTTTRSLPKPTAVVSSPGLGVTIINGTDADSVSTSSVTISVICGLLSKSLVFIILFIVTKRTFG
Experiment: FACS, CHO mouse TREM1
Readout: FOB Fold Over Background (fold)

Binder: T1-31 (antibody, IgG1, V domains shown, huIgG1; also called TI-31) VH: QLQLQESGPGLVKPSETLSLTCTVSGGSISSSSYYWGWIRQPPGKGLEWIGSIYYSGSTYYNPSLKSRVTISVDTSKNQFSLKLSSVTAADTAVYYCARDRRMWDPYGMDVWGQGTTVTVSS VL: DIQMTQSPSSLSASVGDRVTITCQASQDISNYLNWYQQKPGKAPKLLIYDASNLETGVPSRFSGSGSGTDFTFTISSLQPEDIATYYCQQYDDFPPITFGGGTKVEIK
Output Unit: fold
Quantitative Result: 447
--
Binder: T1-30 (antibody, IgG1, V domains shown, huIgG1; also called TI-30) VH: QLQLQESGPGLVKPSETLSLTCTVSGGSISSSSYYWGWIRQPPGKGLEWIGSIYYSGSTYYNPSLKSRVTISVDTSKNQFSLKLSSVTAADTAVYYCARGRKAAAGIDEAEYFQHWGQGTLVTVSS VL: DIQMTQSPSSVSASVGDRVTITCRASQGISSWLAWYQQKPGKAPKLLIYAASSLQSGVPSRFSGSGSGTDFTLTISSLQPEDFATYYCQQVISFPTFGGGTKVEIK
Output Unit: fold
Quantitative Result: 453
--
Binder: T1-54 (antibody, IgG1, V domains shown, huIgG1; also called TI-54; ADI-19129) VH: QVQLVQSGAEVKKPGSSVKVSCKASGGTFSSYAISWVRQAPGQGLEWMGGIIPIFGTANYAQKFQGRVTITADESTSTAYMELSSLRSEDTAVYYCARHWYALGSFDIWGQGTMVTVSS VL: EIVMTQSPATLSLSPGERATLSCRASQSVSSYLAWYQQKPGQAPRLLIYDSSNRATGIPARFSGSGSGTDFTLTISSLEPEDFAVYYCQQHDVWPITFGGGTKVEIK
Output Unit: fold
Quantitative Result: 3.1

Data credit: patent US11472877
